B1: tRNA (parent)
chain: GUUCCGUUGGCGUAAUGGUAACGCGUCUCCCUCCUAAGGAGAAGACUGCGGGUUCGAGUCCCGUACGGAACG

# Variants of: B1
# ASSAY DETAILS: yeast fitness relative to wild type (ratio to wild type); higher = fitter; tRNA-Arg(CCU), competitive growth, 37 C, YPD
Fewer inactive variants are shown than the library holds.
Listing of entries alongside the reported yeast fitness.
QUANTITY: yeast fitness

> print(dat)
              mutation.descriptor  meas.value
 1  G12A C24G A40C A43C C46U C62A       ≤ 0.5
 2            C27G A40G C62U A65U       ≤ 0.5
 3            C33A C49U G52A A70C       ≤ 0.5
 4            U13G C27A C30A A57C       ≤ 0.5
 5                  U3A A37C C61A       ≤ 0.5
 6                      A40C C62A       0.651
 7                  U8A G18C G41A       ≤ 0.5
 8                 C31U G44A A45U       0.893
 9                  U3C C55U G58A       0.508
10            C11G U16A C30A A69U       ≤ 0.5
11        U3G A14G A43U U54A A57C       ≤ 0.5
12                  C5G A20G C55G       0.538
